Assayed System: human CB1 receptor (Homo sapiens, UniProt P21554)
Construct: expressed in transfected cells; host or cells: SK-N-MC cells, stably transfected with pcDNA3 CB-1 (human); semi-purified membrane pellet
Sequence (P21554 whole entry): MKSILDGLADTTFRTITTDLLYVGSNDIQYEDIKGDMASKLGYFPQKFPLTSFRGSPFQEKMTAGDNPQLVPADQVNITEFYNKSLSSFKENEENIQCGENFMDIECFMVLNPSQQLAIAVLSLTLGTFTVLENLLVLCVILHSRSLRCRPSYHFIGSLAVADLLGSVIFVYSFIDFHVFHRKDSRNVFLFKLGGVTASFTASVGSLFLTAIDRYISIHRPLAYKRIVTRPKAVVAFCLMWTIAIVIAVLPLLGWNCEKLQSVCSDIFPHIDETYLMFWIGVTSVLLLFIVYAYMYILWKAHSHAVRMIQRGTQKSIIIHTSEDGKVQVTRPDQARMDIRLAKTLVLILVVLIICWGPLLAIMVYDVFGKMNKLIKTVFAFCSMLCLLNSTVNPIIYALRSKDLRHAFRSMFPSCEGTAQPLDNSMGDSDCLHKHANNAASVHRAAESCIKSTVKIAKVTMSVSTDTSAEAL
Assay Protocol: Cannabinoid CB1 receptor binding assay ([3H]-CP-55,940 displacement, SK-N-MC cell membranes)
Condition Info: 1.5 h, read-out: Cannabinoid CB1 Receptor Binding, percent inhibition
Result Type: inhibition at 0.2 µM (%)
Numeric answer only, unit % assumed.

Prompt: Please report the recorded inhibition at 0.2 µM for C[C@@H](NC(=O)c1nn(-c2ccc(Cl)cc2Cl)c(-c2ccc(Cl)s2)c1C#N)c1ccccn1 .
Completion: 69

Prompt: Would you kindly repeat that for Cc1c(C(=O)NN2CCCCC2)nn(-c2ccc(Cl)cc2Cl)c1-c1cc(Br)cs1 ?
Completion: 74

Prompt: Would you kindly repeat that for C[C@@H](NC(=O)c1nn(-c2ccc(Cl)cc2Cl)c(-c2cccs2)c1C#N)C1CCCCC1 ?
Completion: 66

Prompt: Would you kindly repeat that for Cc1c(C(=O)N[C@@H](C)C2CCCCC2)nn(-c2ccc(Cl)cc2Cl)c1-c1cc(Br)cs1 ?
Completion: 60

Prompt: Would you kindly repeat that for Cc1ccc(-c2c(C)c(C(=O)NN3CCCCC3)nn2-c2ccc(Cl)cc2Cl)o1 ?
Completion: 40

Prompt: Would you kindly repeat that for CCc1c(C(=O)N2CCC(O)CC2)nn(-c2ccc(Cl)cc2Cl)c1-c1ccc(Br)s1 ?
Completion: 28

Prompt: Would you kindly repeat that for CCc1c(C(=O)N[N+]2(C)CCCCC2)nn(-c2ccc(Cl)cc2Cl)c1-c1ccc(Br)s1 ?
Completion: 51

Prompt: Would you kindly repeat that for Cc1c(C(=O)N[C@@H](C)c2ccccn2)nn(-c2ccc(Cl)cc2Cl)c1-c1cccs1 ?
Completion: 25

Prompt: Would you kindly repeat that for N#Cc1c(C(=O)NN2CCCCC2)nn(-c2ccc(Cl)cc2Cl)c1-c1cccs1 ?
Completion: 37

Prompt: Would you kindly repeat that for Cc1c(C(=O)NN2CC3CCCC3C2)nn(-c2ccc(Cl)cc2Cl)c1-c1cccs1 (stereo not drawn) ?
Completion: 53

Prompt: Would you kindly repeat that for Cc1c(C(=O)N[C@@H](C)c2ccccc2)nn(-c2ccc(Cl)cc2Cl)c1-c1cc(Br)cs1 ?
Completion: 52

Prompt: Would you kindly repeat that for Cc1c(C(=O)N[C@@H](C)c2ccccc2)nn(-c2ccc(Cl)cc2Cl)c1-c1cccs1 ?
Completion: 28

Prompt: Would you kindly repeat that for Cc1c(C(=O)N[C@H](C)c2ccccc2)nn(-c2ccc(Cl)cc2Cl)c1-c1cccs1 ?
Completion: 57

Prompt: Would you kindly repeat that for Cc1c(C(=O)NN2CCCCC2)nn(-c2ccc(Cl)cc2Cl)c1-c1cccs1 ?
Completion: 37

Prompt: Would you kindly repeat that for N#Cc1c(C(=O)N2CCCCC2)nn(-c2ccc(Cl)cc2Cl)c1-c1cccs1 ?
Completion: 12

Prompt: Would you kindly repeat that for Cc1c(C(=O)N[C@@H](C)c2ccccc2)nn(-c2ccc(Cl)cc2Cl)c1-c1ccc(F)s1 ?
Completion: 64

Prompt: Would you kindly repeat that for Cc1ccc(-c2c(C)c(C(=O)N[C@H](C)C3CCCCC3)nn2-c2ccc(Cl)cc2Cl)o1 ?
Completion: 46

Prompt: Would you kindly repeat that for CCc1c(C(=O)N[C@H](C)c2ccccc2)nn(-c2ccc(Cl)cc2Cl)c1-c1ccc(Br)s1 ?
Completion: 78

---

Assayed System: human CB2 receptor (Homo sapiens)
Construct: expressed in transfected cells; host or cells: SK-N-MC cells, stably transfected with pcDNA3 CB-2 (human); semi-purified membrane pellet
Sequence (P34972 whole entry): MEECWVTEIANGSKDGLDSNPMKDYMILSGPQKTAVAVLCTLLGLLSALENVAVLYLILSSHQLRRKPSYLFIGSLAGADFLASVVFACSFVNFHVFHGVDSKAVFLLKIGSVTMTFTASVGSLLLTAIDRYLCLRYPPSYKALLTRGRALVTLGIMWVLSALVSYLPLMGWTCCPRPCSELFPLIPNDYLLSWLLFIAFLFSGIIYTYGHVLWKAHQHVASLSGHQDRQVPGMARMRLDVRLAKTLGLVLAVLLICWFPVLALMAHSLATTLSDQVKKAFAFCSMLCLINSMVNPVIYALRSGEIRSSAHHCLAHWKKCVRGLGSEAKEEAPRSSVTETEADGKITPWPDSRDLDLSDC
Assay Protocol: Cannabinoid CB2 receptor binding assay ([3H]-CP-55,940 displacement, SK-N-MC cell membranes)
Condition Info: 1.5 h; test concentration of 0.2 μM; radioligand CP-55,940 0.2 nM; read-out: Cannabinoid CB2 Receptor Binding, percent inhibition
Result Type: inhibition at 0.2 µM (%)
Numeric answer only, unit % assumed.

Prompt: Write down the reported inhibition at 0.2 µM of Cc1ccc(-c2c(C)c(C(=O)N[C@H](C)c3ccccc3)nn2-c2ccc(Cl)cc2Cl)o1 [Cpd 55] , test system: human CB2 receptor (Homo sapiens).
Completion: 30

Prompt: Would you kindly repeat that for Cc1c(C(=O)N2CCCCC2)nn(-c2ccc(Cl)cc2Cl)c1-c1cc(Br)cs1 [Cpd 45] ?
Completion: 12

Prompt: Would you kindly repeat that for Cc1c(C(=O)NN2CCCCC2)nn(-c2ccc(Cl)cc2Cl)c1-c1ccc(F)s1 [Cpd 28] ?
Completion: 20

Prompt: Would you kindly repeat that for Cc1c(C(=O)N[C@H](C)c2ccccc2)nn(-c2ccc(Cl)cc2Cl)c1-c1cc(Br)cs1 [Cpd 49] ?
Completion: 63

---

Assayed System: human CB2 receptor (Homo sapiens)
Construct: expressed in transfected cells; host or cells: SK-N-MC cells, stably transfected with pcDNA3 CB-2 (human); semi-purified membrane pellet
Assay Protocol: Cannabinoid CB2 receptor binding assay ([3H]-CP-55,940 displacement, SK-N-MC cell membranes)
Condition Info: 1.5 h; test concentration of 0.2 μM; radioligand CP-55,940 0.2 nM; read-out: Cannabinoid CB2 Receptor Binding, percent inhibition
For each record, write down the corresponding inhibition at 0.2 µM.
Numeric answer only, unit % assumed.

Prompt: Please report the recorded inhibition at 0.2 µM for C[C@H](NC(=O)c1nn(-c2ccc(Cl)cc2Cl)c(-c2ccc(Cl)s2)c1C#N)c1ccccc1 [Cpd 26] .
Completion: 16

Prompt: Would you kindly repeat that for Cc1c(C(=O)NN2CCCCC2)nn(-c2ccc(Cl)cc2Cl)c1-c1ccc(Br)s1 [Cpd 22] ?
Completion: 42

Prompt: Would you kindly repeat that for Cc1c(C(=O)N[C@H](C)c2ccccc2)nn(-c2ccc(Cl)cc2Cl)c1-c1ccc(F)s1 [Cpd 32] ?
Completion: 55

Prompt: Would you kindly repeat that for CCc1c(C(=O)N2CCC(O)CC2)nn(-c2ccc(Cl)cc2Cl)c1-c1ccc(Br)s1 [Cpd 50] ?
Completion: 17

Prompt: Would you kindly repeat that for C[C@@H](NC(=O)c1nn(-c2ccc(Cl)cc2Cl)c(-c2ccc(Cl)s2)c1C#N)c1ccccn1 [Cpd 27] ?
Completion: 12

Prompt: Would you kindly repeat that for Cc1c(C(=O)NN2CCCCC2)nn(-c2ccc(Cl)cc2Cl)c1-c1cccs1 [Cpd 10] ?
Completion: 6

Prompt: Would you kindly repeat that for Cc1c(C(=O)N[C@@H](C)C2CCCCC2)nn(-c2ccc(Cl)cc2Cl)c1-c1ccc(F)s1 [Cpd 33] ?
Completion: 41

Prompt: Would you kindly repeat that for Cc1c(C(=O)N[C@@H](C)c2ccccc2)nn(-c2ccc(Cl)cc2Cl)c1-c1cccs1 [Cpd 7] ?
Completion: 0

---

Assayed System: human CB1 receptor (Homo sapiens, UniProt P21554)
Construct: expressed in transfected cells; host or cells: SK-N-MC cells, stably transfected with pcDNA3 CB-1 (human); semi-purified membrane pellet
Assay Protocol: Cannabinoid CB1 receptor binding assay ([3H]-CP-55,940 displacement, SK-N-MC cell membranes)
Condition Info: 1.5 h, read-out: Cannabinoid CB1 Receptor Binding, percent inhibition
Quick rule for you: inhibition at 0.2 µM at 40% or higher means T, lower means F.

Prompt: Entry Cc1c(C(=O)NN2CCCCC2)nn(-c2ccc(Cl)cc2Cl)c1-c1ccc(F)s1 [Cpd 28] : is its inhibition at 0.2 µM no less than 40%?
Completion: T

Prompt: Would you kindly repeat that for Cc1c(C(=O)N[C@H](C)c2ccccc2)nn(-c2ccc(Cl)cc2Cl)c1-c1cc(Br)cs1 [Cpd 49] ?
Completion: T

Prompt: Would you kindly repeat that for Cc1c(C(=O)NN2CCCCC2=O)nn(-c2ccc(Cl)cc2Cl)c1-c1ccc(Cl)s1 [Cpd 30] ?
Completion: F

Prompt: Would you kindly repeat that for Cc1c(C(=O)N2CCCCC2)nn(-c2ccc(Cl)cc2Cl)c1-c1cc(Br)cs1 [Cpd 45] ?
Completion: F

Prompt: Would you kindly repeat that for C[C@@H](NC(=O)c1nn(-c2ccc(Cl)cc2Cl)c(-c2cccs2)c1C#N)c1ccccn1 [Cpd 17] ?
Completion: F

Prompt: Would you kindly repeat that for Cc1c(C(=O)N[C@@H](C)C2CCCCC2)nn(-c2ccc(Cl)cc2Cl)c1-c1ccc(F)s1 [Cpd 33] ?
Completion: T

Prompt: Would you kindly repeat that for C[C@@H](NC(=O)c1nn(-c2ccc(Cl)cc2Cl)c(-c2cccs2)c1C#N)c1ccccc1 [Cpd 16] ?
Completion: T

---

Assayed System: human CB1 receptor (Homo sapiens, UniProt P21554)
Construct: expressed in transfected cells; host or cells: SK-N-MC cells, stably transfected with pcDNA3 CB-1 (human); semi-purified membrane pellet
Assay Protocol: Cannabinoid CB1 receptor binding assay ([3H]-CP-55,940 displacement, SK-N-MC cell membranes)
Result Type: IC50 (nM)
Numeric answer only, unit nM assumed.

Prompt: Please report the recorded IC50 for C[C@H](NC(=O)c1nn(-c2ccc(Cl)cc2Cl)c(-c2ccc(Cl)s2)c1C#N)c1ccccc1 .
Completion: 110

Prompt: Would you kindly repeat that for N#Cc1c(C(=O)NN2CCCCC2)nn(-c2ccc(Cl)cc2Cl)c1-c1ccc(Cl)s1 ?
Completion: 71

Prompt: Would you kindly repeat that for Cc1c(C(=O)NN2CCCCC2)nn(-c2ccc(Cl)cc2Cl)c1-c1ccc(Cl)s1 ?
Completion: 40

Prompt: Would you kindly repeat that for Cc1c(C(=O)N[C@H](C)c2ccccc2)nn(-c2ccc(Cl)cc2Cl)c1-c1ccc(F)s1 ?
Completion: 46

Prompt: Would you kindly repeat that for C[C@@H](NC(=O)c1nn(-c2ccc(Cl)cc2Cl)c(-c2ccc(Cl)s2)c1C#N)c1ccccc1 ?
Completion: 16

Prompt: Would you kindly repeat that for CCc1c(C(=O)N[C@@H](C)c2ccccn2)nn(-c2ccc(Cl)cc2Cl)c1-c1ccc(Br)s1 ?
Completion: 15

Prompt: Would you kindly repeat that for Cc1c(C(=O)N[C@@H](C)c2ccccc2)nn(-c2ccc(Cl)cc2Cl)c1-c1ccc(Cl)s1 ?
Completion: 35

Prompt: Would you kindly repeat that for Cc1c(C(=O)N[C@H](C)c2ccccc2)nn(-c2ccc(Cl)cc2Cl)c1-c1ccc(I)s1 ?
Completion: 23
